# system tested: T1, human PD-L2 (full-length, on cells) (human, UniProt Q9BQ51 20-273)
# T1 chain: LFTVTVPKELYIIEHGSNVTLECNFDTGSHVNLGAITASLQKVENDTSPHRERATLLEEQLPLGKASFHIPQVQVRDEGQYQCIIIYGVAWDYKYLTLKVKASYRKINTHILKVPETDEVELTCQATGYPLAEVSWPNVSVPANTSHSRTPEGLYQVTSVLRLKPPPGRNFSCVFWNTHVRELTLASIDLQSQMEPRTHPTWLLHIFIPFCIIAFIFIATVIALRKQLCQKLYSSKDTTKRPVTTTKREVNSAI
# protocol details: FACS, CHO-K1 expressing human PD-L2
quantity kind: pEC50
Please note pEC50 is a logarithmic value: minus log10 of concentration in mol/L. Answer with that number alone.

As a guide, the following entries are already answered.
binder="2C4-E4 (antibody, V domains shown, Both formats under this entry) VH: QVQLVQSGAEVKKPGASVKVSCKASGYTFTGYVMHWVRQAPGQRLEWMGWINADNGITKYSQKFQGRVTITRDTSASTAYMELTNLRSEDTAVYYCARATRGFGEFYFDYWGQGNLVTVSS VL: DIQMTQSPSTLSASVGDRVTITCRASQTISSWLAWYQQKPGKAPNLLIYKASSLESGVPSRFSGSGSGTEFTLTISSLQPDDFATYYCQQYYSYWTFGQGTKVEIK" value_observed=9.31
binder="11C11-H5 (antibody, V domains shown, Both formats under this entry) VH: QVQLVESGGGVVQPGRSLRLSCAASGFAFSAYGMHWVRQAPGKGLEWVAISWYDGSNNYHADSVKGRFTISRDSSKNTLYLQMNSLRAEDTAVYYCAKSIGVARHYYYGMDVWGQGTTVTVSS VL: SYELTQPPSVSVSPGQTASITCSGEELGDKYACWYQQKPGQSPVLVIYQDSKRPSGIPERFSGSNSGNAATLTISGTQAMDEADYYCQAWDSITVVFGGGTKLTVLG" value_observed=9.46
binder="19C3-B3 (antibody, V domains shown, Both formats under this entry; also called 19C3-C3) VH: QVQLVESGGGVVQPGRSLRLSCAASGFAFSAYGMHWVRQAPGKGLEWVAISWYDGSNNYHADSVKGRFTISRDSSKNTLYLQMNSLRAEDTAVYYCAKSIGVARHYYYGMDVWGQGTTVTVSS VL: SYELTQPPSVSVSPGQTASITCSGEELGDKYACWYQQKPGQSPLLVIYQDSKRPSGIPERFSGSNSGNAATLTISGTQAMDEADYYCQAWDSITVIFGGGTKLTVLG" value_observed=9.51

// field: pEC50; key: 8B5-B1 (antibody, V domains shown, Both formats under this entry) VH: EVQLLESGGGLVQPGGSLKLSCAASGFTFSSYAMFWVRQAPGEGLAWVSAITGSGDHTYYADSVKDHFTISRDNSKNTLYLQMNSLKAEDTAVYYCAKDASGNSYGFPYWYFDLWGRGTLVTVSS VL: QSALTQPASVSGSPGQSITISCTGTSSDVAGYNFVSWYQHHPGKTPKLMIYDVTNRPSGVSTRFSGSKSGNTASLTISGLQAEDEADYYCSSFTSATTLVFGGGTKLTVLG ; value = 8.66

// field: pEC50; key: 1A1-C2 (antibody, V domains shown) VH: QVQLQESGPGLVKPSGTLSLTCAVSGGSIGSSYWWTWIRQSPGKGLEWIGEIFHSGPTNYTPSLKSRVTISVDKSKNQFSLQLRSVTAADTAVYYCARTTGTTGFYYGMDVWGQGTTVTVSS VL: EVVLTQSPATLYVTPGERVTLSCRASQSVSSNLAWYQQKPGQAPRLLIYGASTRATGIPARFSGSGSGTEFTLTISSLQSEDFAVYYCQQFNNWPRTFGLGTKVEIT ; value = 9.22
